Biological target: full-length ATR (Homo sapiens, UniProt Q13535)
Construct: in the presence of 5 nM full-length ATR
Sequence (Q13535 whole entry): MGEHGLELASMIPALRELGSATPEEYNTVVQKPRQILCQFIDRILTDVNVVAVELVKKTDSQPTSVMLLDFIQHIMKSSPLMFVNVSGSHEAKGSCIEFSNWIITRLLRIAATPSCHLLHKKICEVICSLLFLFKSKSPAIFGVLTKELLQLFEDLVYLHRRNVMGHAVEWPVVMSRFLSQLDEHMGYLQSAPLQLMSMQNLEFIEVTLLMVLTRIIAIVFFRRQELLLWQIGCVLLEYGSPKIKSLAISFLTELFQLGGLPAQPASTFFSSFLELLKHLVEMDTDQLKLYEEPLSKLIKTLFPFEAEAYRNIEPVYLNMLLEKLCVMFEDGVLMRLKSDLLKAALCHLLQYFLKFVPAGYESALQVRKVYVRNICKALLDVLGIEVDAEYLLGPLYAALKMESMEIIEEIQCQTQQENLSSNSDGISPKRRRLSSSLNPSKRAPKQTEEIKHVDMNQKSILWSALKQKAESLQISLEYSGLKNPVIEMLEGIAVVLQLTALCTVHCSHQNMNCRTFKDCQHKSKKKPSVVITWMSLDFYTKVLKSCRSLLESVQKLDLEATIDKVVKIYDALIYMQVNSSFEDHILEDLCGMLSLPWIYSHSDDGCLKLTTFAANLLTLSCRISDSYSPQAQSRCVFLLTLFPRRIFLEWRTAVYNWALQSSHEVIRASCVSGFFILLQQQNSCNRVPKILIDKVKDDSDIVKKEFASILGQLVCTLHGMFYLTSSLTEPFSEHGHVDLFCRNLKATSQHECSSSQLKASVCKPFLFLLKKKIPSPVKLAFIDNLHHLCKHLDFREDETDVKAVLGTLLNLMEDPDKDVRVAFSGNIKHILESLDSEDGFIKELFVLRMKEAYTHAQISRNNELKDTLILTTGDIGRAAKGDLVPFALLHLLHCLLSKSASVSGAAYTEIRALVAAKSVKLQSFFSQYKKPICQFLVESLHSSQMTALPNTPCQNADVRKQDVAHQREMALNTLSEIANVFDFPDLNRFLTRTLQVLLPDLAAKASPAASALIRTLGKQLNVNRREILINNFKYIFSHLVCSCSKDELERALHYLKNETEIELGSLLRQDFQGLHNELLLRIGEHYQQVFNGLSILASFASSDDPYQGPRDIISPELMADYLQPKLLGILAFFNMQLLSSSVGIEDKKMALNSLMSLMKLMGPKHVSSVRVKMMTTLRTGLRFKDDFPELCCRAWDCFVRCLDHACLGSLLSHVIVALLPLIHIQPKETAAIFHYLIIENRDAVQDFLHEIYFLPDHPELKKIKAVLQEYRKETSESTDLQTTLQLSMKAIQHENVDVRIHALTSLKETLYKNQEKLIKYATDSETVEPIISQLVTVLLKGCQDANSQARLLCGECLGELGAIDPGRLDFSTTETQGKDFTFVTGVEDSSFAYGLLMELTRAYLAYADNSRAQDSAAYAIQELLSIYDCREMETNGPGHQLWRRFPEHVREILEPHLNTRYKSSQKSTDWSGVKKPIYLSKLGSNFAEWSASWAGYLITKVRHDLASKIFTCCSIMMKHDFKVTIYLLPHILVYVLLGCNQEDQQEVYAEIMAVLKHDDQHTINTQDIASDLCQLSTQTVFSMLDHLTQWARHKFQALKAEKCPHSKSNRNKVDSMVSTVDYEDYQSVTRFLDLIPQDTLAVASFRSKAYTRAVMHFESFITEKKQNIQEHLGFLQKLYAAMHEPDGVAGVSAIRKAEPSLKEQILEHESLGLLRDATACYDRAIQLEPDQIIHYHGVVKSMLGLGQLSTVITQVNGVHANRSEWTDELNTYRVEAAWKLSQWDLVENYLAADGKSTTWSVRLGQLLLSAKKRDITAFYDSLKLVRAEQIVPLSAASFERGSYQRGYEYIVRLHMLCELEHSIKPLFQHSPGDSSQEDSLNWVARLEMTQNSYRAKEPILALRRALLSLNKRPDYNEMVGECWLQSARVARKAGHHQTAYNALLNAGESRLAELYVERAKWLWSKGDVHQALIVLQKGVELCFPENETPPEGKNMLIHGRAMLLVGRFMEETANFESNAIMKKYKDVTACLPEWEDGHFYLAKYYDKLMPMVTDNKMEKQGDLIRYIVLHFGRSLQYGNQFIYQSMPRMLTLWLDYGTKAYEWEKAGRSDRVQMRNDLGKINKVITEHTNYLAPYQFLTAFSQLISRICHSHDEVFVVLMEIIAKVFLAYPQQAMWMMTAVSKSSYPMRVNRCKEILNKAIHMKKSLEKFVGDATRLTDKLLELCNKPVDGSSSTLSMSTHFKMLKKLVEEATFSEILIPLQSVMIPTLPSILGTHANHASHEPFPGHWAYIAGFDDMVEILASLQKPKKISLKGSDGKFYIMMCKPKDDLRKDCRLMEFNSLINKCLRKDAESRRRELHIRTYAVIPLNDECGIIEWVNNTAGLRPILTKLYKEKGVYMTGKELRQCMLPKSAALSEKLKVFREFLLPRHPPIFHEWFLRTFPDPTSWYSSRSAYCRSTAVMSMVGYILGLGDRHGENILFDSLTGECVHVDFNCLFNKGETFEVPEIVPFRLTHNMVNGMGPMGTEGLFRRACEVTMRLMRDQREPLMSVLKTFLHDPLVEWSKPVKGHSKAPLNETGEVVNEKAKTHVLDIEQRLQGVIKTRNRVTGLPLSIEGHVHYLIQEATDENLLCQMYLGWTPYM
Experiment: ATR Inhibition Assay (radioactive-phosphate incorporation)
Format: biochemical
Details: Ki(app); 5 nM full-length ATR, 10 μM ATP, 800 μM target peptide, 25° C.
measurement_label: Ki

>>> meas_value("Cc1cccc(C)c1C(=O)N1CCN(c2cnc(N)c(-c3nnc(-c4ccccc4)o3)n2)CC1")
"0.1 to 1 µM"
>>> meas_value("Nc1ncc(N2CC=C(c3nccs3)CC2)nc1-c1nnc(-c2ccccc2)o1")
"0.1 to 1 µM"
>>> meas_value("Nc1ncc(C2=CCN(S(=O)(=O)c3ccccc3)CC2)nc1-c1nc2ccccc2[nH]1")
"< 0.1 µM"
>>> meas_value("NCCS(=O)(=O)N1CC=C(c2cnc(N)c(-c3nc4ccccc4[nH]3)n2)CC1")
"0.1 to 1 µM"
>>> meas_value("CCS(=O)(=O)N1CCN(c2cnc(N)c(-c3ncc(-c4ccccc4)o3)n2)CC1")
"0.1 to 1 µM"

Using the record for `CCCS(=O)(=O)N1CC=C(c2cnc(N)c(-c3nnc(-c4ccccc4)o3)n2)CC1` , report its Ki.
< 0.1 µM

Another compound to check: `CCNC(=O)O[C@H]1CCN(c2cnc(N)c(-c3nnc(-c4ccc(CNC)cc4)o3)n2)C1`
0.1 to 1 µM

Try this compound too: `CC(=O)N1CCN(c2cnc(N)c(-c3nc4ccc(C)cc4[nH]3)n2)CC1`
0.1 to 1 µM

* * *

Below, each of the molecules is paired with its reported Ki value.
Target: full-length ATR (Homo sapiens, UniProt Q13535)
Construct: in the presence of 5 nM full-length ATR
Experiment: ATR Inhibition Assay (radioactive-phosphate incorporation)
Conditions: Ki(app); 5 nM full-length ATR, 10 μM ATP, 800 μM target peptide, 25° C.

>>> meas_value("Nc1ncc(N2CCN(C(=O)N3CCCC3)CC2)nc1C(=O)Nc1ccccn1")
"1000 to 10000 nM"
>>> meas_value("Cc1ccc2nc(-c3nc(N4CCNC(=O)CC4)cnc3N)[nH]c2c1")
"1000 to 10000 nM"
>>> meas_value("Nc1ncc(N2CCN(S(=O)(=O)Cc3ccccc3)CC2)nc1C(=O)Nc1ccccn1")
"100 to 1000 nM"

Any idea what its Ki is? The molecule is `CN(C)S(=O)(=O)N1CC=C(c2cnc(N)c(-c3nnc(-c4ccccc4)o3)n2)CC1`
< 100 nM

Another molecule to look at: `CCS(=O)(=O)N1CCN(c2cnc(N)c(-c3nc4ccccc4n3-c3ccccc3)n2)CC1`
100 to 1000 nM

What about this molecule? `Nc1ncc(N2CCN(S(=O)(=O)c3ccoc3)CC2)nc1-c1nnc(-c2ccccc2)o1`
100 to 1000 nM

Another molecule to look at: `CC(=O)C1(c2ccccc2)CCN(c2cnc(N)c(-c3nc4ccc(C)cc4[nH]3)n2)CC1`
1000 to 10000 nM

Here is the next molecule: `Cc1ccc2nc(-c3nc(N4CCNC(=O)C4)cnc3N)[nH]c2c1`
100 to 1000 nM

* * *

Target: full-length ATR (Homo sapiens)
Construct: in the presence of 5 nM full-length ATR
Experiment: ATR Inhibition Assay (radioactive-phosphate incorporation)
Type: biochemical
Settings: Ki(app); 5 nM full-length ATR, 10 μM ATP, 800 μM target peptide, 25° C.
Description: Test compounds were screened for their ability to inhibit ATR kinase using a radioactive-phosphate incorporation assay. Assays were carried out in a mixture of 50 mM Tris/HCl (pH 7.5), 10 mM MgCl2 and 1 mM DTT. […] After removing mean background values for all of the data points, Ki(app) data were calculated from non-linear regression analysis of the initial rate data using the Prism software package (GraphPad Prism version 3.0cx for Macintosh, GraphPad Software, San Diego Calif., USA).
pKi: −log10 of the molar value.
measurement_label: pKi

The cases that follow already have their pKi on record.
>>> meas_value("CCS(=O)(=O)N1CCN(c2cnc(N)c(-c3cc4ccccc4[nH]3)n2)CC1")
"5.00 to 6.00"
>>> meas_value("CCS(=O)(=O)N1CC=C(c2cnc(N)c(-c3nc4c(F)cccc4[nH]3)n2)CC1")
"> 7.00"

Entry `CC#CCOC(=O)N1CCN(c2cnc(N)c(C(=O)Nc3ccccn3)n2)CC1` has what pKi?
5.00 to 6.00

What would you report for `CCC(CC)C(=O)N1CCN(c2cnc(N)c(C(=O)Nc3ccccn3)n2)CC1` ?
5.00 to 6.00

* * *

Molecular target: full-length ATR (Homo sapiens)
Construct: in the presence of 5 nM full-length ATR
Test: ATR Inhibition Assay (radioactive-phosphate incorporation)
Conditions: Ki(app); 5 nM full-length ATR, 10 μM ATP, 800 μM target peptide, 25° C.
pKi: −log10 of the molar value.
# pKi per record follows

Which pKi value is on record for `COCCOCC(=O)N1CC=C(c2cnc(N)c(-c3nnc(-c4ccccc4)o3)n2)CC1` ?
> 7.00

* * *

Recorded pKi by entry
Molecular target: full-length ATR (Homo sapiens)
Construct: in the presence of 5 nM full-length ATR
Experiment: ATR Inhibition Assay (radioactive-phosphate incorporation)
Settings: Ki(app); 5 nM full-length ATR, 10 μM ATP, 800 μM target peptide, 25° C.
pKi: −log10 of the molar value.

>>> meas_value("CCS(=O)(=O)N1CC=C(c2cnc(N)c(-c3nc4cc(C)ccc4[nH]3)n2)CC1 [Compound I-157]")
"> 7.00"

Query: pKi; subject: CCS(=O)(=O)N1CC=C(c2cnc(N)c(-c3nc4ccc(C)c(C)c4[nH]3)n2)CC1 [Compound I-152]
6.00 to 7.00

Input CCS(=O)(=O)N1CCN(c2cnc(N)c(-c3nnc(-c4c(F)cccc4F)o3)n2)CC1 [Compound I-289]
6.00 to 7.00

// same read-out, input: Nc1ncc(C2=CCN(C(=O)N3CCCNCC3)CC2)nc1-c1nc2ccccc2[nH]1 [Compound I-279]
6.00 to 7.00

What do you get for NCCCS(=O)(=O)N1CC=C(c2cnc(N)c(-c3nc4ccccc4[nH]3)n2)CC1 [Compound I-331] ?
> 7.00

// next record Nc1ncc(C2=CCN(C(=O)CCC(=O)O)CC2)nc1-c1nc2ccccc2[nH]1 [Compound I-324]
6.00 to 7.00

What do you have for CCC(=O)N1CCC(c2cnc(N)c(-c3nnc(-c4ccc(CNC)cc4)o3)n2)CC1 [Compound I-353] ?
6.00 to 7.00

Next entry: Nc1ncc(N2CC=C(C(=O)O)CC2)nc1-c1nnc(-c2ccccc2)o1 [Compound I-288]
6.00 to 7.00

* * *

Molecular target: full-length ATR (Homo sapiens, UniProt Q13535)
Construct: in the presence of 5 nM full-length ATR
Assay: ATR Inhibition Assay (radioactive-phosphate incorporation)
Conditions: Ki(app); 5 nM full-length ATR, 10 μM ATP, 800 μM target peptide, 25° C.
measurement_label: Ki

Worked examples follow.
>>> meas_value("CN(C)CC(=O)N1CCN(c2cnc(N)c(C(=O)Nc3ccccn3)n2)CC1")
"1000 to 10000 nM"
>>> meas_value("CN(C)C(=O)N1CCN(c2cnc(N)c(C(=O)Nc3ccccn3)n2)CC1")
"100 to 1000 nM"
>>> meas_value("CCS(=O)(=O)N1CC=C(c2cnc(N)c(C(=O)Nc3n[nH]c4ccccc34)n2)CC1")
"< 100 nM"
>>> meas_value("Nc1ncc(N2CCN(C(=O)c3cccnc3)CC2)nc1C(=O)Nc1ccccn1")
"1000 to 10000 nM"
>>> meas_value("CCS(=O)(=O)N1CC=C(c2cnc(N)c(-c3noc(-c4ccccc4)n3)n2)CC1")
"100 to 1000 nM"
>>> meas_value("CCOC(=O)N1CC=C(c2cnc(N)c(-c3nc4ccccc4[nH]3)n2)CC1")
"100 to 1000 nM"

Ki for `Nc1ncc(N2CCN(C(=O)N3CCCCC3)CC2)nc1-c1nc2ccccc2[nH]1` ?
1000 to 10000 nM

Next up: `Nc1ncc(C2=CCN(C(=O)COc3ccccc3)CC2)nc1-c1nnc(-c2ccccc2)o1`
< 100 nM

* * *

# key: entry, value: Ki
Target: full-length ATR (Homo sapiens, UniProt Q13535)
Construct: in the presence of 5 nM full-length ATR
Experiment: ATR Inhibition Assay (radioactive-phosphate incorporation)
Details: Ki(app); 5 nM full-length ATR, 10 μM ATP, 800 μM target peptide, 25° C.

Here's what some known entries look like.
>>> meas_value("Cc1ccc2nc(-c3nc(N4CCS(=O)(=O)CC4)cnc3N)[nH]c2c1 [Compound I-21]")
"1000 to 10000 nM"
>>> meas_value("CCOC(=O)N1CCN(c2cnc(N)c(-c3nnc(-c4ccccc4)o3)n2)CC1 [Compound I-232]")
"100 to 1000 nM"
>>> meas_value("Cn1cnc(S(=O)(=O)N2CCN(c3cnc(N)c(-c4nnc(-c5ccccc5)o4)n3)CC2)c1 [Compound I-87]")
"100 to 1000 nM"
>>> meas_value("Nc1ncc(C2=CCN(C(=O)Cc3ccccc3)CC2)nc1-c1nc2ccccc2[nH]1 [Compound I-213]")
"100 to 1000 nM"
>>> meas_value("CN(C)C(=O)N1CCN(c2cnc(N)c(-c3nnc(-c4ccccc4)o3)n2)CC1 [Compound I-218]")
"100 to 1000 nM"
>>> meas_value("CCS(=O)(=O)N1CC=C(c2cnc(N)c(C(=O)Nc3cccnc3OC)n2)CC1 [Compound I-165]")
"< 100 nM"
>>> meas_value("CC(C)(C)C(=O)N1CCN(c2cnc(N)c(-c3nnc(-c4ccccc4)o3)n2)CC1 [Compound I-198]")
"100 to 1000 nM"
>>> meas_value("Cc1ccc2nc(-c3nc(C4=CCC5(CC4)OCCO5)cnc3N)[nH]c2c1 [Compound I-22]")
"100 to 1000 nM"
>>> meas_value("Nc1ncc(N2CCN(S(=O)(=O)c3cccnc3)CC2)nc1C(=O)Nc1ccccn1 [Compound I-233]")
"100 to 1000 nM"
>>> meas_value("CCN1CCN(c2cnc(N)c(-c3nnc(-c4ccc(CNC)cc4)o3)n2)CC1 [Compound I-322]")
"100 to 1000 nM"

Request the reported Ki associated with CNC(=O)[C@H]1CCN(c2cnc(N)c(-c3nc4ccc(C)cc4[nH]3)n2)C1 [Compound I-70]
1000 to 10000 nM

Next compound: CC(=O)NC1CCN(c2cnc(N)c(-c3nc4ccc(C)cc4[nH]3)n2)CC1 [Compound I-43]
100 to 1000 nM

Also, CNCc1ccc(-c2nnc(-c3nc(N4CCC[C@H]4C)cnc3N)o2)cc1 [Compound I-362] please.
100 to 1000 nM

Now the compound Cn1cnc(S(=O)(=O)N2CCN(c3cnc(N)c(-c4nc5ccccc5[nH]4)n3)CC2)c1 [Compound I-91]
100 to 1000 nM

Item: CNCc1ccc(-c2nnc(-c3nc(N4CCC(c5ccccc5)C4)cnc3N)o2)cc1 (centres unmarked) [Compound I-316]
< 100 nM

Now consider CCC(=O)N1CC=C(c2cnc(N)c(-c3nc4ccccc4[nH]3)n2)CC1 [Compound I-309] .
< 100 nM

What do you get for CC(C)C(=O)N1CC=C(c2cnc(N)c(-c3nc4cccnc4[nH]3)n2)CC1 [Compound I-67] ?
< 100 nM

Further, for CCNCc1ccc(-c2nnc(-c3nc(N4CCCC4)cnc3N)o2)cc1 [Compound I-343] ?
< 100 nM

src = patent US8410112B2
